Data origin, for the record: ChEMBL document CHEMBL6096721

Assay: Half-life in male rat at 1 mg/kg, iv
Assay type: ADME, organism-based
Settings: in vivo
observedProperty: half-life (min)
Write it as a number; the unit min goes unstated.

Reported half-life ( N#Cc1ccc(C[Se]c2cccc(C3CCN(Cc4nc5ccc(C(=O)O)cc5n4C[C@@H]4CCO4)CC3)n2)c(F)c1 ) = 28.2

###

Assay: Cmax in male ICR mouse at 2 mg/kg, iv measured after 24 hrs by LC-MS/MS analysis
Assay type: ADME, organism-based
Conditions: in vivo
observedProperty: Cmax (ng/mL)
Write it as a number; the unit ng/mL goes unstated.

Reported Cmax ( COc1cc(C#N)ccc1C[Se]c1cccc(N2C=NN(Cc3nc4c(F)cc(C(=O)O)cc4n3C[C@@H]3CCO3)CC2)n1 ) = 13400

Reported Cmax ( COc1cc(C(F)(F)F)ccc1C[Se]c1cccc(N2C=NN(Cc3nc4c(F)cc(C(=O)O)cc4n3C[C@@H]3CCO3)CC2)n1 ) = 16500

Reported Cmax ( COc1cc(C#N)ccc1C[Se]c1cccc(C2CCN(Cc3nc4ccc(C(=O)O)cc4n3C[C@@H]3CCO3)CC2)n1 ) = 8110
